- protocol notes: Plasma concentration in rat at 1 mg/kg, iv at 0.25 h
- Format: ADME, organism-based
- Design: dose 1 mg/kg, route intravenous
measured metric: concentration at 0.25 h (nM)

>>> result_number("C[C@H](NS(=O)(=O)c1cccc(-c2ccccc2)c1)[C@@H](Cc1ccc(Cl)cc1)c1cccc(C#N)c1")
220

---

- protocol notes: Ratio of drug level in brain to plasma in rat at 1 mg/kg, iv at 0.25 h
- Type: ADME, organism-based
- Set-up: dose 1 mg/kg, route intravenous
measured metric: Kp at 0.25 h

>>> result_number("C[C@H](NS(=O)(=O)c1cccc(-c2ccccc2)c1)[C@@H](Cc1ccc(Cl)cc1)c1cccc(C#N)c1")
0.66

---

Reported pIC50 values for the following compounds.
- subject of test: Cannabinoid receptor 2 (Homo sapiens, UniProt P34972)
- Sequence (P34972 whole entry): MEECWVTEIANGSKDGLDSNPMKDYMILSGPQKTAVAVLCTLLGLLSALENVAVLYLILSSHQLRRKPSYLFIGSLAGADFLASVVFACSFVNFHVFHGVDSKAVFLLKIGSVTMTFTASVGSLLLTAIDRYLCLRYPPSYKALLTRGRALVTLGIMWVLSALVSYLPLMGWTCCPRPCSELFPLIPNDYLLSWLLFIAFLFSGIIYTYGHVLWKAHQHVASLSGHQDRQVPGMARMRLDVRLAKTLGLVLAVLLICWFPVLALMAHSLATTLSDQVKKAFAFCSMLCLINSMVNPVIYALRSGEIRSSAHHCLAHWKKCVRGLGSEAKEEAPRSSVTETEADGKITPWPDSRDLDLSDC
- protocol notes: Displacement of [3H]CP-55940 from human recombinant CB2 receptor expressed in CHO cells
pIC50: −log10 of the molar value.
measured metric: pIC50

>>> result_number("C[C@H](NS(=O)(=O)c1cccc2ccccc12)[C@@H](Cc1ccc(Cl)cc1)c1cccc(C#N)c1")
5.95
>>> result_number("C[C@H](NC(=O)c1c(Cl)cccc1Cl)[C@@H](Cc1ccc(Cl)cc1)c1cccc(C#N)c1")
6.02
>>> result_number("C[C@H](NS(=O)(=O)Cc1ccc(Cl)cc1)[C@@H](Cc1ccc(Cl)cc1)c1cccc(C#N)c1")
5.76

---

- subject of test: Cannabinoid receptor 2 (Homo sapiens, UniProt P34972)
- protocol notes: Displacement of [3H]CP-55940 from human recombinant CB2 receptor expressed in CHO cells
Reported IC50 values for the following molecules.
measured metric: IC50 (nM)

>>> result_number("C[C@H](NS(=O)(=O)/C=C/c1ccccc1)[C@@H](Cc1ccc(Cl)cc1)c1cccc(C#N)c1")
1080
>>> result_number("C[C@H](NS(=O)(=O)Cc1cccc(Cl)c1)[C@@H](Cc1ccc(Cl)cc1)c1cccc(C#N)c1")
2000
>>> result_number("C[C@H](NS(=O)(=O)c1ccccc1Cl)[C@@H](Cc1ccc(Cl)cc1)c1cccc(C#N)c1")
668

---

Reported pIC50 values for the following compounds.
- subject of test: Cannabinoid receptor 1 (Homo sapiens)
- Sequence (P21554 whole entry): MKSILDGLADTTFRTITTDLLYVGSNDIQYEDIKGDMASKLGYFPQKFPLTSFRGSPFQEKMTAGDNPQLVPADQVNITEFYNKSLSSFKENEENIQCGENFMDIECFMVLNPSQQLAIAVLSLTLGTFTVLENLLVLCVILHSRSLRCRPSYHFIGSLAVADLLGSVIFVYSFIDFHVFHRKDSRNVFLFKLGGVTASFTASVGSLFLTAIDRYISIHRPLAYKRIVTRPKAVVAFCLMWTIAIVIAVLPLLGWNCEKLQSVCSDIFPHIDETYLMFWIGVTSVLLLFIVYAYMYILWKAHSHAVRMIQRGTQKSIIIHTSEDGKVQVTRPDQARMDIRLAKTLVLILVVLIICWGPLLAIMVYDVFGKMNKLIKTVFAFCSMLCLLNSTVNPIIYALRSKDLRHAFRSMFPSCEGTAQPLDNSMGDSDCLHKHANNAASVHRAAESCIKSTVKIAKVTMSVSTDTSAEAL
- protocol notes: biochemical
- Description: Displacement of [3H]CP-55940 from human recombinant CB1 receptor expressed in CHO cells
pIC50: −log10 of the molar value.
measured metric: pIC50

>>> result_number("C[C@H](NS(=O)(=O)c1cc(F)cc(F)c1)[C@@H](Cc1ccc(Cl)cc1)c1cccc(C#N)c1")
8.29
>>> result_number("C[C@H](NS(=O)(=O)c1cccc(Cl)c1Cl)[C@@H](Cc1ccc(Cl)cc1)c1cccc(C#N)c1")
7.97
>>> result_number("C[C@H](NS(=O)(=O)c1cccc2ccccc12)[C@@H](Cc1ccc(Cl)cc1)c1cccc(C#N)c1")
7.68
>>> result_number("C[C@H](NS(=O)(=O)C(C)(C)C)[C@@H](Cc1ccc(Cl)cc1)c1cccc(C#N)c1")
5.78

---

- protocol notes: Ratio of drug level in brain to plasma in rat at 1 mg/kg, iv at 2 hrs
- Assay type: ADME, organism-based
- Design: dose 1 mg/kg, route intravenous
measured metric: Kp at 2 h

>>> result_number("C[C@H](NS(=O)(=O)c1cccc(-c2ccccc2)c1)[C@@H](Cc1ccc(Cl)cc1)c1cccc(C#N)c1")
1
